B1: GLTSCR2 (parent)
chain: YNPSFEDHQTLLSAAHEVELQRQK

- Variants of: B1
- Test: protein stability index of a GFP-peptide fusion (GPS, HEK-293T) (PSI 1-6); higher = more stable;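 also: lentivirally expressed fusions sorted by FACS into six bins by GFP to DsRed ratio, PSI derived from sequencing read proportions per bin multiplied by bin number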
- Condition: c terminus: a fixed tail appended
Measurement Label: protein stability index
No unit in the answer, only the number.

Solved cases below.
>  <Variant Notation>
Q9C

>  <Measurement Label>
protein stability index

>  <Readout Value>
3.06

$$$$
>  <Variant Notation>
A15R

>  <Measurement Label>
protein stability index

>  <Readout Value>
3.56

$$$$
>  <Variant Notation>
T10W

>  <Measurement Label>
protein stability index

>  <Readout Value>
2.65

$$$$
>  <Variant Notation>
A15E

>  <Measurement Label>
protein stability index

>  <Readout Value>
4.53

$$$$
>  <Variant Notation>
E17T

>  <Measurement Label>
protein stability index

>  <Readout Value>
3.36

$$$$

q: Need protein stability index of "Q21F" , thanks.
a: 3.06

q: Need protein stability index of "P3V" , thanks.
a: 3.73
